Biological target: Serotonin 3 (5-HT3) receptor (Rattus norvegicus) (UniProt P35563+Q9JJ16)
Assay: Antagonist activity ([…]) for the Bezold Jarisch reflex evoked by 30 ug/Kg of 5-HT in ethylurethane anesthetized rats (i.v.)
Assay type: functional
measured-metric: inhibition

* CN1C2CCCC1CC(N1CCN(c3cccc(Cl)c3)C1=O)C2 (stereo in doubt; 37) | 15%
* CN1C2CCC1CC(NC(=O)N1CC(C)(C)c3ccccc31)C2 (stereo not drawn) | 90.5%
* Cc1[nH]cnc1CN1CCN(c2cccc(Cl)c2)C1=O | 87%
* O=C1N(c2cccc(C(F)(F)F)c2)CCN1C1CN2CCC1CC2 (stereo not drawn) | 14%
* Cc1[nH]cnc1CN1CCN(c2ccccc2Cl)C1=O | 5%
* CN1C2CCC1CC(N1CCN(c3cccc(Cl)c3)C1=O)C2 (stereo in doubt; 33) | 27%

Input line: Param item = Cc1[nH]c[n+](C)c1CN1CCN(c2ccccc2)C1=O ; retrieve measured inhibition.
Output line: 45%

Input line: Param item = CN1C2CCCC1CC(N1CCN(c3ccccc3)C1=O)C2 (stereo not drawn) ; retrieve measured inhibition.
Output line: 22%

----------
Target: Serotonin 3 (5-HT3) receptor (Rattus norvegicus) (UniProt P35563+Q9JJ16)
Experiment: Inhibition of the Bezold Jarisch reflex evoked by 30 ug/Kg of 5-HT.
Format: functional
Below, each entry is listed alongside its reported ID50.
API: value field is a number in µg/kg; no unit string.

# count of solved cases: 5
* Cc1[nH]cnc1CN1CCN(c2ccccc2)C1=O | 3.9
* Cc1cc(C)cc(N2CCN(Cc3nc[nH]c3C)C2=O)c1 | 3.4
* COc1cccc(N2CCN(Cc3nc[nH]c3C)C2=O)c1 | 15.4
* CN1C2CCCC1CC(NC(=O)c1nn(C)c3ccccc13)C2 (stereo unspecified) | 0.88
* Cc1c(CN2CCN(c3ccccc3)C2=O)ncn1C | 28.5

Next compound, ID50 to be filled in.
Input line: Param item = Cc1[nH]cnc1CN1CCN(c2cccc(Br)c2)C1=O ; retrieve measured ID50.
Output line: 6.5

----------
Target: Serotonin 3 (5-HT3) receptor (Rattus norvegicus) (UniProt P35563+Q9JJ16)
Assay: Antagonist activity ([…]) for the Bezold Jarisch reflex evoked by 30 ug/Kg of 5-HT in ethylurethane anesthetized rats (i.v.)
Type: functional
Below, each entry is listed alongside its reported inhibition.

* CC[n+]1c[nH]c(C)c1CN1CCN(c2ccccc2)C1=O | 38%
* CN1C2CCC1CC(N1CCN(c3ccccc3)C1=O)C2 (configuration not stated) | 56%
* CN1C2CCC1CC(N1CCN(c3cccc(Cl)c3)C1=O)C2 (stereo in doubt; 34) | 0%
* Cc1c(CN2CCN(c3ccccc3)C2=O)ncn1C | 77%
* Cc1cccc(N2CCN(C3CN4CCC3CC4)C2=O)c1 (configuration not stated) | 75%
* O=C1N(c2ccccc2)CCN1C1CN2CCC1CC2 (configuration not stated) | 71%

Input line: # returns recorded inhibition (system: Serotonin 3 (5-HT3) receptor (Rattus norvegicus) (UniProt P35563+Q9JJ16)) for Cc1cccc(N2CCN(Cc3nc[nH]c3C)C2=O)c1
Output line: 86%

Input line: # returns recorded inhibition (system: Serotonin 3 (5-HT3) receptor (Rattus norvegicus) (UniProt P35563+Q9JJ16)) for Cc1cc(C)cc(N2CCN(Cc3nc[nH]c3C)C2=O)c1
Output line: 86%

Input line: # returns recorded inhibition (system: Serotonin 3 (5-HT3) receptor (Rattus norvegicus) (UniProt P35563+Q9JJ16)) for CN1C2CCCC1CC(NC(=O)c1nn(C)c3ccccc13)C2 (configuration not stated)
Output line: 95%

Input line: # returns recorded inhibition (system: Serotonin 3 (5-HT3) receptor (Rattus norvegicus) (UniProt P35563+Q9JJ16)) for O=C1N(Cc2c[nH]cn2)CCN1c1ccccc1
Output line: 56%

Input line: # returns recorded inhibition (system: Serotonin 3 (5-HT3) receptor (Rattus norvegicus) (UniProt P35563+Q9JJ16)) for Cc1[nH]cnc1CN1CCN(c2ccc(Cl)cc2)C1=O
Output line: 29%

Input line: # returns recorded inhibition (system: Serotonin 3 (5-HT3) receptor (Rattus norvegicus) (UniProt P35563+Q9JJ16)) for Cc1[nH]cnc1CN1CCN(c2cccc(C(F)(F)F)c2)C1=O
Output line: 39%

Origin of measurements: ChEMBL document CHEMBL1130427
